Each recorded value in this set is attributed to paper PMC9007951.

Test: Timed organ biodistribution of [^64Cu]Cu-DOTATATE by ex vivo gamma counting
Assay type: in vivo, mice
Settings: mouse, heart, intravenous, 1.85 MBq, total radioactivity; female C57BL/6 mice, 60 min after injection, median (IQR), N=3-7; read-out: Tissue radioactivity, heart
measure name: tissue uptake at 1 h (%ID/g)
State just the number; it will be interpreted in %ID/g.

Tell me the measured tissue uptake at 1 h of C[C@@H](O)[C@H](NC(=O)[C@@H]1CSSC[C@H](NC(=O)[C@@H](Cc2ccccc2)NC(=O)CN2CCN(CC(=O)O)CCN(CC(=O)O)CCN(CC(=O)O)CC2)C(=O)N[C@@H](Cc2ccc(O)cc2)C(=O)N[C@H](Cc2c[nH]c3ccccc23)C(=O)N[C@@H](CCCCN)C(=O)N[C@@H]([C@@H](C)O)C(=O)N1)C(=O)O [[^64Cu]Cu-DOTATATE, metal not drawn] , please. 0.8
